Item-by-item account of melting point
metric: melting point

compound: COc1nc2cc(Cl)ccc2n2cnnc12
result: 250 to 252 °C
//
compound: Cc1ccc2cc(NC(=O)c3cccc(CSc4cnccn4)c3)ccc2n1
result: 133 to 135 °C
//
compound: Cc1ccc(N2C(=O)C(O)=C(C(=O)c3ccc(C(C)C)cc3)C2c2ccc(N3CCOCC3)cc2)nn1 (stereo not given)
result: 293 to 294 °C
//
compound: O=C(NCc1ccc(Cl)cc1)c1cn2c3c(cc(CCCO)cc3c1=O)OCC2(CO)CO
result: 173 to 174 °C
//
compound: Cc1c(F)c(N2CCNCC2)cc2c1c(=O)c(C(=O)O)cn2-c1ccc(F)cc1F
result: 198 to 200 °C
//
compound: CCOC(OCC)c1cc(NC(c2ccccc2)(c2ccccc2)c2ccccc2)c(F)cn1
result: 125 to 127 °C
//
compound: COc1ccc(Cl)c([N+](=O)[O-])c1Cl
result: 97 to 99 °C
//
compound: CC(=O)OC1=CC(C)C2(C)C(=C1)CCC1C3CCC(=O)C3(C)CCC12 (stereo not given)
result: 104 to 107 °C
//
compound: CCOC(=O)C1=CCCCC1S(=O)(=O)Nn1cccc1-c1ccccc1 (stereo not given)
result: 160 to 161 °C
//
compound: Cc1ccc2cccc(OCc3c(Cl)ccc(OCCNC(=O)CCc4ccccc4)c3Cl)c2n1
result: 112 to 114 °C
//
compound: N#Cc1ccc2oc(CCc3ccc(C(=O)Nc4cnccn4)cc3)cc2c1
result: 183 to 185 °C
//
compound: COC(=O)CC(c1ccc(OC)cc1)N1C(=O)c2ccccc2C1=O (stereo not given)
result: 65 to 66 °C
//
compound: CCCCc1ncc(/C=C(\Cc2cccs2)C(=O)O)n1Cc1ccccc1Cl
result: 175 to 177 °C
//
compound: COc1ccc(-c2ccc(S(=O)(=O)NCc3ccccn3)nc2)cc1
result: 150 °C
//
compound: NC(=O)NN=Cc1ccc(Oc2ccc([N+](=O)[O-])cc2)cc1
result: 221 to 222 °C
//
compound: CCCC(=O)c1cnc2ccc(COCc3ccccc3)cc2c1Cl
result: 85 to 86 °C
//
compound: O=C(Nc1ccc(C(=O)SCC2C(=O)OCC2c2ccccc2)cc1)OCc1ccccc1 (stereo not given)
result: 160 to 162 °C
//
compound: Cn1nc(N)c2sc3c(Cl)cccc3c21
result: 239 to 241 °C
//
compound: c1ccc2c(OCC3CO3)c(OCC3CO3)ccc2c1 (stereo not given)
result: 131 to 133 °C
//
compound: O=S1(=O)CCN(c2nc3c(-c4nc(C5CC5)no4)ncn3c3ccccc23)CC1
result: 328 to 335 °C
